Values compiled from patent US20240218057A1.

- System name: T1, SARS-COV-2 RBD (SARS-COV-2, UniProt P0DTC2 319-539)
- T1 construct: also called WT RBD
- Assay remarks: ELISA, RBD coated on plate
Examples of binders with documented EC50 follow.

Example results:
Binder	EC50
C915 (antibody, V domains shown) VH: QVQLQESGPGLVKPSQTLSLTCTVSGGSISSGDYYWSWIRQPPGKGLEWIGYIYYSDSTYYNPSLRTRVTISVDTSKNQFSLKLTSVTAADTAVYYCARAMITFGGVIVLYDYWGQGTLVTVSS VL: QSALTQPPSASGSPGQSVTISCTGTSSDVGGYNYVSWYQQHPGKAPKLMIYEVTKRPSGVPARFSGSKSGNTASLTVSGLQAEDEADYYCSSYAGSILLYVFGTGTKVTVL	3.49 ng/mL
C1054 (antibody, V domains shown) VH: EVQLLESGGGLVQPGGSLRLSCVVSGFTFSSYAMNWVRQAPGKGLEWVSVIGGSGDGRYYADSVKGRFTISRDNSKNTLYLQMNSLRGDDTAVYYCARDVPVEQQLVPTFDYWGQGTLVTVSS VL: DIQMTQSPSSLSASVGDRVTITCRASQSISRYLNWYQQKPGKAPKLLIYAASSLQSGVPSRFSGSGSGTEFTLTISSLQPEDFATYYCQQSYSTLSITFGQGTRLEIK	1.64 ng/mL

Then this binder:
Quick one: EC50 for C925 (antibody, V domains shown) VH: QVQLVESGGGVVQPGRSLRLSCAASGFTFSNYGLHWVRQAPGKGLEWVAVTSDDGNRKYYADSVKGRFTISRDDSKNTLYLQMNNLRTEDTAVYYCAKSWWLSENWFDPWGQGTLVTVSS VL: EIVMTQSPATLSVSPGERATLSCRASQSVRSNLAWYQQRPGQAPRLLIYGAFTRATGIPARFSVSGSGTEFTLTIDSLQSEDFAVYYCQQYNNWPLTFGGGTKVEIK ?
2.26 ng/mL
